target: T1, PSMA Fab (biotinylated (site not stated)); assay: phage ELISA, biotinylated PSMA Fab on neutravidin plate, anti-M13-HRP detection, blocking buffer alone
T1 construct: Biotinylated PSMA Fab captured on neutravidin plates in the phage ELISA; also called Anti-PSMA Fab; 006 PSMA Fab
Where no end group is shown, it is not given here.
readoutKind: Phage binding ELISA signal, Anti-PSMA Fab

| binder | testResult |
| --- | --- |
| APKWCTPSWMCQQV [Phage-2661] | 0.908 |
| VVKWCTPAWMCSLN [Phage-2663] | 0.902 |
| LQKWCIPAWMCSST [Phage-2657] | 0.92 |
| AIKWCIPAWMCAQA (cysteine pairing not given here; also: displayed on phage as pIII fusion) [Phage-2656] | 0.92 |
| EFKWCIPMWMCQAN [Phage-2665] | 0.896 |
| APHLCIPKWMCNPS [Phage-2664] | 0.899 |
| HEKWCTPPWMCELI [Phage-2654] | 0.929 |
| FVNMCKPAWMCSLL [Phage-2655] | 0.923 |
| SNHLCTPPWMCYGF [Phage-2652] | 0.939 |
| VEKWCRPSWMCQQV [Phage-2660] | 0.914 |
| GEHWCTPAWMCSVM [Phage-2659] | 0.919 |
| LQNWCVPAWMCELM [Phage-2651] | 0.941 |
| ETKWCIPVWMCEHK [Phage-2653] | 0.934 |
| MPKWCTPQWMCEMY [Phage-2658] | 0.92 |
| DVKWCIPPWMCPSF [Phage-2650] | 0.944 |
| DYKWCTPPWMCLVD [Phage-2662] | 0.904 |

Where do these numbers come from? They come from patent US20260242478A1.
